System: transient middle cerebral artery occlusion in rats
experiment_notes: Transient middle cerebral artery occlusion (MCAo), infarct size evaluation
Type: in vivo
details: IV, one week after the ischemic insult
parameter: reduction of infarct size
Field note: include the unit after the figure.

Record CCCCCCC(C)(C)c1cc(O)c2c(c1)OC(C)(C)[C@H]1CC=C(CO)C[C@H]21 [211,007-000 HU-211, reference compound] has transient middle cerebral artery occlusion in rats reduction of infarct size equal to 48%

Readout reduction of infarct size for CCCCCCC(C)(C)c1cc(O)c2c(c1)OC(C)(C)[C@H]1CC=C(CSc3ncc[nH]3)C[C@H]21 (single isomer, unassigned) [211,092-000] , test system transient middle cerebral artery occlusion in rats, was 52%

Simply: CCCCCCC(C)(C)c1cc(O)c2c(c1)OC(C)(C)[C@H]1CC=C(Cn3ccnc3)C[C@H]21 (single isomer, unassigned) [211,095-000] , transient middle cerebral artery occlusion in rats, reduction of infarct size = 60%

Log: transient middle cerebral artery occlusion in rats, compound CCCCCCC(C)(C)c1cc(O)c2c(c1)OC(C)(C)[C@H]1CC=C(CN3CCN=C3SC)C[C@H]21 [211,204-000] , reduction of infarct size = 50%

---

For each entry below, report its inhibition at 10 µM value.
System: Nitric Oxide Synthase (NOS)
experiment_notes: Inhibition of nitric oxide synthase (nitrite fluorimetric assay, LPS-stimulated macrophage cultures)
Assay type: cell-based
details: LPS-stimulated macrophages
Just the number in %, nothing appended.

Item: CCCCCCC(C)(C)c1cc(O)c2c(c1)OC(C)(C)[C@H]1CC=C(CN3CCCC3)C[C@H]21 (stereo in doubt) | inhibition at 10 µM: 27

For reference, reported inhibition at 10 µM for CCCCCCC(C)(C)c1cc(O)c2c(c1)OC(C)(C)[C@H]1CC=C(CN3CC=CCC3)C[C@H]21 stands at 60

Memo: CCCCCCC(C)(C)c1cc(O)c2c(c1)OC(C)(C)[C@H]1CC=C(Cn3ccnc3)C[C@H]21 (single isomer, unassigned) , reported inhibition at 10 µM: 14

The molecule listed as CCCCCCC(C)(C)c1cc(O)c2c(c1)OC(C)(C)[C@H]1CC=C(CN3CCN=C3SC)C[C@H]21 shows inhibition at 10 µM equal to 85

Consider CCCCCCC(C)(C)c1cc(O)c2c(c1)OC(C)(C)[C@H]1CC=C(CN3CCOCC3)C[C@H]21 . Its measured inhibition at 10 µM is 40

Record CCCCCCC(C)(C)c1cc(O)c2c(c1)OC(C)(C)[C@H]1CC=C(CN3CC=CC3)C[C@H]21 . Reported inhibition at 10 µM: 0

Per the records, this molecule ( CCCCCCC(C)(C)c1cc(O)c2c(c1)OC(C)(C)[C@H]1CC=C(CN3CCC(N4CCCCC4)CC3)C[C@H]21 (single isomer, unassigned) ) has inhibition at 10 µM equal to 39

Reported inhibition at 10 µM for CCCCCCC(C)(C)c1cc(O)c2c(c1)OC(C)(C)[C@H]1CC=C(COCC(O)CO)C[C@H]21 (stereo partly shown) was 0

Noted for CCCCCCC(C)(C)c1cc(O)c2c(c1)OC(C)(C)[C@H]1CC=C(CN3CCC(C)CC3)C[C@H]21 (single isomer, unassigned) : its inhibition at 10 µM reads 37

For CCCCCCC(C)(C)c1cc(O)c2c(c1)OC(C)(C)[C@H]1CC=C(CSc3ncc[nH]3)C[C@H]21 (single isomer, unassigned) the molecule record lists inhibition at 10 µM as 0

For reference, reported inhibition at 10 µM for CCCCCCC(C)(C)c1cc(O)c2c(c1)OC(C)(C)[C@H]1CC=C(CN3CCCCC3)C[C@H]21 (stereo in doubt) stands at 27

inhibition at 10 µM reported for this molecule CCCCCCC(C)(C)c1cc(O)c2c(c1)OC(C)(C)[C@H]1CC=C(CN3CCC(N4CCCC4)CC3)C[C@H]21 : 27

The reported value for CCCCCCC(C)(C)c1cc(O)c2c(c1)OC(C)(C)[C@H]1CC=C(CC#N)C[C@H]21 in terms of inhibition at 10 µM is 19
